System: human breast adenocarcinoma (MDA-MB-231) cells
Protocol Details: Antiproliferative assay (MTT or SRB), MDA-MB-231
Assay type: cell-based
Setup Conditions: Homo sapiens, MDA-MB-231; read-out: IC50 ± SD, antiproliferative activity
Assay Metric: IC50 (µM)
Reply numerically in µM, unit not repeated.

Below, each entry is followed by its recorded IC50 result.
Compound	Unit Abbrev	IC50
CCC1(CC)C(=O)N(c2ccc(-c3csc(Nc4cc(OC)c(OC)c(OC)c4)n3)cc2)C1=O [3c]	µM	6.38
CCC1(CC)C(=O)N(c2ccc(-c3csc(Nc4ccc(Cl)cc4)n3)cc2)C1=O [3a]	µM	9.86

# context switch: different compound, same IC50
Task: I am curious: what IC50 value has been reported for CCC1(CC)C(=O)N(c2ccc(-c3csc(Nc4c(Cl)cc(Cl)cc4Cl)n3)cc2)C1=O [3j] ?
Output: 14.3
